Data credit: patent US5457103A

System: Human LDLs
method_description: Modification of LDLs by copper sulphate (inhibition of LDL oxidation, MDA production)
Type: biochemical
conditions: 24 hours, copper sulfate 5 μM, compounds 0.1 μM to 100 μM; read-out: IC50 (reduction by 50% of the production of MDA), oxidation of LDLs by copper sulfate
Measured IC50 values are reported for all entries that follow.
result_type: IC50

- smiles_data: "CC(C)(C)c1cc(C(=O)Oc2ccc3c(=O)cc(-c4cc(C(C)(C)C)c(O)c(C(C)(C)C)c4)oc3c2)cc(C(C)(C)C)c1O"
  recorded_value: "30 µM"
- smiles_data: "CC(C)(C)c1cc(-c2cc(=O)c3ccc(OCC(=O)N4CCN(Cc5ccccc5)CC4)cc3o2)cc(C(C)(C)C)c1O"
  recorded_value: "3 µM"
- smiles_data: "CCCCCCOc1ccc2c(=O)cc(-c3cc(C(C)(C)C)c(O)c(C(C)(C)C)c3)oc2c1"
  recorded_value: "5 µM"
- smiles_data: "CC(C)(C)c1cc(-c2cc(=O)c3ccc(O)cc3o2)cc(C(C)(C)C)c1O"
  recorded_value: "1 µM"

----------
Tested on: Human LDLs
method_description: Modification of LDLs by copper sulphate (inhibition of LDL oxidation, MDA production)
Format: biochemical
conditions: 24 hours, copper sulfate 5 μM, compounds 0.1 μM to 100 μM; read-out: IC50 (reduction by 50% of the production of MDA), oxidation of LDLs by copper sulfate
result_type: IC50

- compound: "CC(C)(C)c1cc(-c2cc(=O)c3ccc(OCC(=O)O)cc3o2)cc(C(C)(C)C)c1O [Example 18]"
  recorded_value: "5 µM"
- compound: "CC(C)(C)c1cc(-c2cc(=O)c3ccc(OCCN4CCOCC4)cc3o2)cc(C(C)(C)C)c1O"
  recorded_value: "0.8 µM"
- compound: "CC(C)(C)c1cc(-c2cc(=O)c3ccc(OCc4ccc(Cl)cc4)cc3o2)cc(C(C)(C)C)c1O"
  recorded_value: "7 µM"

----------
Tested on: Human LDLs
method_description: Modification of LDLs by endothelial cells of the rabbit aorta (inhibition of LDL oxidation, MDA production)
Type: cell-based
conditions: 24 hours, endothelial cells of rabbit aorta (RECL B4 line), compounds 0.1 to 100 μM; read-out: IC50 (reduction by 50% of the production of MDA), oxidation of LDLs by endothelial cells
pIC50: −log10 of the molar value.

- substance: "VITAMIN E [reference compound]"
  system_under_test: "Human LDLs"
  pIC50: 5.40
